# target_or_system: 3CLpro (Severe acute respiratory syndrome coronavirus 2, UniProt P0DTD1)
# run_description: SARS-CoV-2 3CLpro protease assay (duplex, SAMDI-MS)
# Assay type: biochemical
# Design: For the duplex assay, 3CLpro and HRV3C was added
# measurement_conditions: 3CLpro, 30 mins preincubation, class symbols; read-out: SARS-Cov-2 IC50
parameter: IC50

Example results:
> print(dat)
                                smiles.code   assay.value
1  O=C1NCC[C@H]1C[C@H](NC(=O)[C@@H]1[C@H]2CCC[C@H]2CN1C(=O)c1cc2c(Cl)ccc(C(F)(F)F)c2[nH]1)C(=O)CO  20 to 200 nM
2  O=C1NCC[C@H]1C[C@H](NC(=O)[C@@H]1[C@H]2CCC[C@H]2CN1C(=O)c1cc2c(Cl)c(F)cc(F)c2[nH]1)C(=O)CO  20 to 200 nM
3  COc1cccc2[nH]c(C(=O)N3C[C@]4(C[C@H]3C(=O)N[C@@H](C[C@@H]3CCNC3=O)C(=O)CO)CC4(F)F)cc12  20 to 200 nM
4  Cn1c(C(=O)N2CCC3(CC3)C[C@H]2C(=O)N[C@@H](C[C@@H]2CCNC2=O)C(=O)C(=O)NC2CC2)cc2ccccc21       < 20 nM
5  COc1cccc2[nH]c(C(=O)N3C[C@]4(C[C@H]3C(=O)N[C@@H](C[C@@H]3CCCNC3=O)C(=O)C(=O)NC(C)C)CC4(F)F)cc12  20 to 200 nM

Alright, here's another molecule for you.
IN: What IC50 value was documented for this molecule, "O=C1NCC[C@H]1C[C@H](NC(=O)[C@@H]1[C@H]2CCC[C@H]2CN1C(=O)c1cc2c(OC3CC3)cc(Cl)cc2[nH]1)C(=O)CO" ?
OUT: < 20 nM

====

Could you please report measured CC50 for the items listed next?
# run_description: in vitro
# measurement_conditions: African green monkey, VeroE6 + CP (CC50), Vero E6-eGFP cells with CP-100356, absence of virus, MTS; numeric bounds

Solved entries:
> print(dat)
                                   molecule  assay.value
1  O=C(NC1CC1)C(=O)[C@H](C[C@@H]1CCNC1=O)NC(=O)[C@@H]1CC2(CCN1C(=O)c1cc3ccccc3o1)CC2      > 50 µM
2  O=C(NC1CC1)C(=O)[C@H](C[C@@H]1CCNC1=O)NC(=O)[C@@H]1[C@H]2CCC[C@H]2CN1C(=O)c1cc2c(Cl)cc(Cl)cc2[nH]1      > 50 µM
3  O=C1NCC[C@H]1C[C@H](NC(=O)[C@@H]1[C@H]2CCC[C@H]2CN1C(=O)c1nc2c(Cl)ccc(Cl)c2[nH]1)C(=O)CO      > 50 µM
4  Cc1cccc2[nH]c(C(=O)N3CCC4(CC4)C[C@H]3C(=O)N[C@@H](C[C@@H]3CCNC3=O)C(=O)C(=O)NC3CC3)cc12      > 50 µM
5  COc1cc(Cl)cc2[nH]c(C(=O)N3C[C@@H]4CCC[C@@H]4[C@H]3C(=O)N[C@@H](C[C@@H]3CCNC3=O)C(=O)CO)cc12     > 100 µM

Could you report CC50 for every entry in the following list?
1. COc1cccc2[nH]c(C(=O)N3C[C@@H]4CCC[C@@H]4[C@H]3C(=O)N[C@@H](C[C@@H]3CCNC3=O)C(=O)c3nc4ccccc4o3)cc12
2. O=C1NCC[C@H]1C[C@H](NC(=O)[C@@H]1[C@H]2CCC[C@H]2CN1C(=O)c1cc2c(Oc3ccccc3)cccc2[nH]1)C(=O)CO
3. O=C1NCC[C@H]1C[C@H](NC(=O)[C@@H]1[C@H]2CCC[C@H]2CN1C(=O)c1cc2c(Cl)cccc2[nH]1)C(=O)COCc1ccccc1 [Compound 60A]
4. C[C@@H]1C[C@@H](C(=O)N[C@@H](C[C@@H]2CCNC2=O)C(=O)C(=O)NCc2ccccc2)N(C(=O)c2cc3ccccc3[nH]2)C1
5. O=C(c1ccccc1)c1c[nH]c(C(=O)N2C[C@@H]3CCC[C@@H]3[C@H]2C(=O)N[C@@H](C[C@@H]2CCNC2=O)C(=O)CO)c1

OUT:
1. > 100 µM
2. > 50 µM
3. > 100 µM
4. > 100 µM
5. > 50 µM

Required: CC50, one value per molecule below.
1. Cn1c(C(=O)N2CCC3(CC3)C[C@H]2C(=O)N[C@@H](C[C@@H]2CCNC2=O)C(=O)C(=O)NC2CC2)cc2ccccc21
2. O=C(NCc1ccccc1)C(=O)C(C[C@@H]1CCNC1=O)NC(=O)[C@@H]1C[C@@H](Oc2ccccc2)CN1C(=O)c1cc2ccccc2[nH]1 (stereo partly shown)
3. COc1cccc2[nH]c(C(=O)N3C[C@]4(C[C@H]3C(=O)NC(C[C@@H]3CCCNC3=O)C(=O)C(=O)NCc3ccccc3)CC4(F)F)cc12 (stereo partly shown)
4. COc1cccc2[nH]c(C(=O)N3C[C@@H]4CCC[C@@H]4[C@H]3C(=O)NC(C[C@@H]3CCNC3=O)C(=O)C(=O)NC3CC3)cc12 (stereo partly shown)
5. COc1cccc2[nH]c(C(=O)N3CC4(CC4)C[C@H]3C(=O)N[C@@H](C[C@@H]3CCCNC3=O)C(=O)CO)cc12
6. O=C(NC1CC1)C(=O)[C@H](C[C@@H]1CCNC1=O)NC(=O)[C@@H]1CC2(CCN1C(=O)c1cc3c(Cl)cc(Cl)cc3[nH]1)CC2
7. O=C1NCC[C@H]1C[C@H](NC(=O)[C@@H]1[C@H]2CCC[C@H]2CN1C(=O)c1cc2c(Cl)cc(Cl)c(F)c2[nH]1)C(=O)CO

OUT:
["> 50 µM", "> 100 µM", "> 100 µM", "> 100 µM", "> 100 µM", "> 50 µM", "> 50 µM"]

Here are 5 molecules. What values of CC50 were reported for them?
1. COc1ccc2[nH]c(C(=O)N3CCC4(CC4)C[C@H]3C(=O)N[C@@H](C[C@@H]3CCNC3=O)C(=O)C(=O)NC3CC3)cc2c1
2. CC(C)[C@@H]1C[C@@H](C(=O)NC(C[C@@H]2CCNC2=O)C(=O)C(=O)NCc2ccccc2)N(C(=O)c2cc3ccccc3[nH]2)C1 (stereo partly shown)
3. CC(C)NC(=O)C(=O)C(C[C@@H]1CCCNC1=O)NC(=O)[C@@H]1[C@H]2CCC[C@H]2CN1C(=O)c1cc2ccccc2[nH]1 (stereo partly shown)
4. O=C(NCc1ccccc1)C(=O)C(C[C@@H]1CCNC1=O)NC(=O)[C@@H]1[C@H]2CC[C@H](C2)N1C(=O)c1cc2ccccc2[nH]1 (stereo partly shown)
5. COc1cccc2[nH]c(C(=O)N3CCC4(CC4)C[C@H]3C(=O)N[C@@H](C[C@@H]3CCCNC3=O)C(=O)CO)cc12

OUT:
> 50 µM
> 100 µM
> 100 µM
> 100 µM
> 100 µM
